- Measured Target: AliD (residues 28–652), oligopeptide-binding lipoprotein of the Ami system, without the lipobox segment (Streptococcus pneumoniae)
- Method Summary: MST; 20 nM RED-NHS-labelled AliD and unlabelled peptides (7.63x10^-6–0.125 mM) both in solution, PBS, 25°C, 40% LED power, medium MST power, Monolith NT.115; three independent experiments
Value Kind: pKd
pKd is defined as minus the log10 of a concentration measured in mol/L.

# pKd lookup, item Peptide 1 (FPPQSV)
5.46
